Hello, the source for this data is paper PMC6651548, in case you need it.

Values of pIC50 reported for AChE (Homo sapiens, UniProt P22303) appear below.
Value format note: pIC50 is -log10 of concentration (mol/L); just state the number.

>>> reportedvalue("COc1ccc(-c2csc(NN=Cc3ccc(N4CCN(c5ccc(F)cc5)CC4)cc3)n2)cc1 [Compound 3c]")
7.50

Query: For AChE (Homo sapiens, UniProt P22303), provide pIC50 of Fc1ccc(N2CCN(c3ccc(C=NNc4nc(-c5ccc(C(F)(F)F)cc5)cs4)cc3)CC2)cc1 [Compound 3i] please.
Reply: 6.67

Query: For AChE (Homo sapiens, UniProt P22303), provide pIC50 of Fc1ccc(N2CCN(c3ccc(C=NNc4nc(-c5ccccc5)cs4)cc3)CC2)cc1 [Compound 3a] please.
Reply: 7.30
